- Test system: RPMI-8226
- ASSAY SUMMARY: NCI tumour cell line growth inhibition, 48 h
Activity calls are given as the source filed them. Rule as the data show it: active = GI50 up to about 1.1 µM and inactive = higher.
Your response should consist of one outcome taken from 1 (active), -1 (inactive)

Use the examples below as a reference point.
CCCC(=O)n1[nH]c(=O)n(C(C)(C)C)c1=O; -1
Cc1cc(S(=O)(=O)Nc2n[nH]c(-c3ccc(Cl)cn3)n2)c(S)cc1Cl; -1
Cc1nc2cccc(F)c2c(=O)n1C1CCCCNC1=O (configuration not stated); -1

Dear all, I need the recorded test outcome for COc1ccc2c(c1)-c1nn(CCCN(C)C)c3ccc([N+](=O)[O-])c(c13)N2 [PYRAZOLOACRIDINE] , thank you.
1

Dear all, I need the recorded test outcome for "O=C(O)c1cc(Cl)cc(NC(=O)C(Cl)Cl)c1Cl" , thank you.
-1

Dear all, I need the recorded test outcome for "COC1=C(OC)C(=O)C(Cc2c(C)nc3sc(C)cn23)=C(C)C1=O" , thank you.
-1

Dear all, I need the recorded test outcome for CC(=O)OC(C)(C)C1CCC(C)(C(O)COc2ccc(CCNC(=O)c3ccccc3)cc2)O1 (configuration not stated) , thank you.
-1

Dear all, I need the recorded test outcome for "O=c1[nH]cc(C(F)(C(F)(F)F)C(F)(F)F)c(=O)[nH]1" , thank you.
-1

Dear all, I need the recorded test outcome for CC#CC(O)(C(=O)OC1CC(C)N(C)C(C)(C)C1)C1CCCC1 (configuration not stated) , thank you.
-1

---

- Test system: CAKI-1
- ASSAY SUMMARY: NCI tumour cell line growth inhibition, 48 h
Active and inactive are the calls of the source. Rule as the data show it: active = GI50 up to about 1.1 µM and inactive = higher.
Reported GI50 values for a set of molecules

Solved entries (count: 7):
COc1ccc(C(C)c2cc3c(cc2O)OCO3)cc1 (stereo not drawn); 25.2 µM (inactive)
O=C(CC(C(=O)c1ccsc1)c1ccc2c(c1)OCO2)c1ccccc1 (stereo not drawn); > 100 µM (inactive)
C[C@H]1[C@H](C)CC[C@]2(C(=O)OC3OC(CO)C(O)C(O)C3O)CC[C@]3(C)C(=CC[C@@H]4[C@@]5(C)C[C@@H](O)[C@@H]6OC(=O)c7cc(O)c(O)c(O)c7-c7c(cc(O)c(O)c7O)C(=O)OC[C@@]6(CO)[C@@H]5CC[C@]43C)[C@H]12 (stereo partly drawn); 47.8 µM (inactive)
CCOc1ccc(NCC2CC/C(=C\C=C\c3ccccc3)C2=O)cc1 (stereo not drawn); 12.7 µM (inactive)
CCCCc1ccc2[n+](c1)C(C(=O)OCC)=PC2 (stereo not drawn); > 100 µM (inactive)
CC(=O)OC(C)(C)C1CCC(C)(C(O)COc2ccc(CCNC(=O)c3ccccc3)cc2)O1 (stereo not drawn); > 100 µM (inactive)
Cc1cc(S(=O)(=O)/N=C(\NN)NNc2cccc(C(F)(F)F)n2)c(S)cc1Cl; 20.8 µM (inactive)

Now consider a different molecule.
Item "O=C1NC(=S)NC(=O)C1=C/C=C/c1ccc([N+](=O)[O-])cc1" was tested on CAKI-1; the reported GI50 is 15.2 µM (inactive)

---

- Tested on: PC-3
- ASSAY SUMMARY: NCI tumour cell line growth inhibition, 48 h
The source made the active and inactive calls. No stated cut-off is given here; in the data, active = GI50 up to about 1.1 µM and inactive = higher.
Your response should consist of one outcome taken from TRUE (active), FALSE (inactive)

CC(C)SC(C)(NC(=O)C1C(C)(C)CCC1(C)C)C(=O)O (stereo not given); FALSE

Dear all, I need the recorded test outcome for "COc1ccc2c(c1)-c1nc(=O)n(CCCN(C)C)c3ccc([N+](=O)[O-])c(c13)N2" , thank you.
TRUE

Dear all, I need the recorded test outcome for CCN1CCC(CNC(=O)c2ccc(N)cc2)N1CC (stereo not given) , thank you.
FALSE

Dear all, I need the recorded test outcome for "O=c1[nH]c2c(Nc3c4ccccc4nc4ccccc34)c([N+](=O)[O-])c(Nc3c4ccccc4nc4ccccc34)c([N+](=O)[O-])c2[nH]1" , thank you.
FALSE

---

- Test system: CAKI-1
- ASSAY SUMMARY: NCI tumour cell line growth inhibition, 48 h
Activity calls are given as the source filed them. Rule as the data show it: active = GI50 up to about 1.1 µM and inactive = higher.
Reported GI50 values for a set of molecules

Solved entries (count: 6):
CN(C)c1ccc(/C=N/C23CC4CC(CC(C4)C2)C3)cc1; > 100 µM (inactive)
N#Cc1c(N)oc(-c2ccc([N+](=O)[O-])cc2)c1C#N; 24.3 µM (inactive)
COc1ccccc1-n1c(=O)n(C)c(=O)n1C(C)(C)C; > 100 µM (inactive)
CCOC(=O)c1cc(-c2ccn(C(C)=O)c2)c(-c2cc(C)co2)[nH]1; > 100 µM (inactive)
CC(C)c1cc(OCC(O)CO)cc(C(C)C)c1 (stereo not given); > 100 µM (inactive)
O=c1c(O)c(-c2ccccc2)n(O)c2ccc(Cl)cc12; 29.9 µM (inactive)

// sample "NN/C(=N\S(=O)(=O)c1cccc2nsnc12)Nc1ccc(Cl)cc1" , its GI50 was > 100 µM (inactive)

// sample CC12ON=C(c3ccccc3)N1C=CN1C(c3ccccc3)=NOC12 (stereo not given) , its GI50 was > 100 µM (inactive)

// sample "COc1cc2c(/C=C3/C(=O)Nc4cc(C)c(O)cc43)c(Cl)[nH]c2cc1C" , its GI50 was 2.55 µM (inactive)

---

- Test system: OVCAR-3
- ASSAY SUMMARY: NCI tumour cell line growth inhibition, 48 h
Calls of active or inactive are those of the source. Rule as the data show it: active = GI50 up to about 1.1 µM and inactive = higher.
Your response should consist of one outcome taken from 1 = active, 0 = inactive

CCOC(=O)c1c(Sc2ccc([N+](=O)[O-])cc2[N+](=O)[O-])nc2c3ccccc3ccn12; 0

Dear all, I need the recorded test outcome for Cc1ccc(NC(=O)CCC(=O)C(C#N)c2ccc(Cl)cc2)cc1C (centres undefined) , thank you.
0

Dear all, I need the recorded test outcome for "CCOC(=O)c1c(C)nc2c(c1-c1cn(-c3ccccc3)nc1-c1ccccc1)C(=O)c1ccccc1-2" , thank you.
0

Dear all, I need the recorded test outcome for "Cc1ccc2c(c1)C(=O)c1nc(C)ccc1C2=O" , thank you.
0

Dear all, I need the recorded test outcome for "O=c1c2cc(Cl)ccc2[nH]c2cc(O)cc(O)c12" , thank you.
0

Dear all, I need the recorded test outcome for CC(=O)O[C@H]1C(=O)[C@@]2(C)C(C(OC(=O)c3ccccc3)[C@]3(O)CC(OC(=O)C(O)C(NC(=O)c4ccc(C)cc4)c4ccccc4)C(C)=C1C3(C)C)[C@]1(OC(C)=O)CO[C@@H]1C[C@@H]2O (some centres undefined) , thank you.
1

Dear all, I need the recorded test outcome for CCCCc1ccc(Nc2nc(Cl)c3ccn(C4CC(Oc5ccc(C)cc5)C(COc5ccc(C)cc5)O4)c3n2)cc1 (centres undefined) , thank you.
0

Dear all, I need the recorded test outcome for "CC(=O)Nc1ccc(/C=C/C(=O)c2sc(-c3nc(C)c(C(=O)/C=C/c4ccc(NC(C)=O)cc4)s3)nc2C)cc1" , thank you.
0

Dear all, I need the recorded test outcome for CC(C)(C)[Si](OC1CCOC1=O)(c1ccccc1)c1ccccc1 (centres undefined) , thank you.
0

---

- Tested on: LOX IMVI
- ASSAY SUMMARY: NCI tumour cell line growth inhibition, 48 h
The source made the active and inactive calls. Rule as the data show it: active = GI50 up to about 1.1 µM and inactive = higher.
Reported GI50 values for a set of compounds

// sample C=C1C(=O)C[C@@]23CCC[C@@]12CC(OCOC)C3 (stereo partly specified) , its GI50 was 1.61 µM (inactive)

// sample "O=c1[nH]nc(Cc2ccccc2)n1C1CCCC1" , its GI50 was > 100 µM (inactive)

// sample NC(CN(O)N=O)C(=O)O (stereo unspecified) , its GI50 was 0.267 µM (active)

// sample "CN1CCc2c(sc3ncn(Nc4ccc(Cl)cc4)c(=N)c23)C1" , its GI50 was > 100 µM (inactive)

// sample "CN(O)C(=O)CCCC(=O)NCC(C)(C)CNC(=O)CCCC(=O)N(C)O" , its GI50 was > 100 µM (inactive)

// sample "COc1ccc2nc3c(c(NCCCN(C)C)c2c1)CCCC3" , its GI50 was 12.8 µM (inactive)

// sample C=C1CC(OC)(C(O)C(=O)N[C@H]2OCO[C@H]3C2O[C@H](C[C@@H](COC)OC)C(C)(C)C3OC)O[C@H](C)[C@@H]1C (stereo partly specified) , its GI50 was < 0.00482 µM (active)

// sample "Brc1ccc2c3c1[C@H]1O[C@H]1c1cccc(c1-3)[C@@H]1O[C@H]21" , its GI50 was 2.82 µM (inactive)

// sample "O=c1[nH]cc(C(F)(C(F)(F)F)C(F)(F)F)c(=O)[nH]1" , its GI50 was > 100 µM (inactive)

// sample "S=C1CNC(=S)CN1" , its GI50 was > 100 µM (inactive)

// sample "O=c1cc(N2CCCC2)[nH]c(=O)n1Cc1ccccc1" , its GI50 was > 100 µM (inactive)

---

- Test system: CAKI-1
- ASSAY SUMMARY: NCI tumour cell line growth inhibition, 48 h
Active and inactive are the calls of the source. No stated cut-off is given here; in the data, active = GI50 up to about 1.1 µM and inactive = higher.
Reported GI50 values for a set of molecules

Solved entries (count: 8):
CCN(CC)C(=S)Oc1cc2oc(=O)cc(C)c2cc1Cl; > 100 µM (inactive)
c1cc(-c2cscc2-c2ccsc2)cs1; > 100 µM (inactive)
CN1CCN(C(=S)N2CCN(C)CC2)CC1; > 100 µM (inactive)
COc1cc(C2C(Cl)C(=O)N2NC(=O)c2ccc(N)cc2)ccc1O (stereo not given); 25.5 µM (inactive)
CC(C)=CCC/C(C)=C/CC/C(C)=C/CSc1ccccc1C(=O)O; 22.1 µM (inactive)
CC(c1ccc2c(c1)CCC1C2CC2OC23CC=CC(=O)[C@]13C)C1C[C@]2(C)O[C@]2(C)[C@H](O)O1 (stereo not given in full); 7.64 µM (inactive)
O=C(NNS(=O)(=O)c1ccccc1)c1csc(NC(=S)NC2CCCCC2)n1; 28.4 µM (inactive)
CCOC(=O)c1c(O)nc2cccc3c2c1-c1cccnc1S3; 16.7 µM (inactive)

// sample "OC[C@H]1O[C@@H]2O[C@@](COCc3ccccc3)([C@H](OCc3ccccc3)[C@H]2O)[C@@H]1OCc1ccccc1" , its GI50 was 15.7 µM (inactive)

// sample "Cc1ccc2c(c1)C(=O)c1nc(C)ccc1C2=O" , its GI50 was 24.8 µM (inactive)
